Recorded IC50 for the following compounds
# tested_on: endogenous full length AR (Homo sapiens (Human), UniProt P10275, T878A)
# Sequence (P10275 whole entry T878A): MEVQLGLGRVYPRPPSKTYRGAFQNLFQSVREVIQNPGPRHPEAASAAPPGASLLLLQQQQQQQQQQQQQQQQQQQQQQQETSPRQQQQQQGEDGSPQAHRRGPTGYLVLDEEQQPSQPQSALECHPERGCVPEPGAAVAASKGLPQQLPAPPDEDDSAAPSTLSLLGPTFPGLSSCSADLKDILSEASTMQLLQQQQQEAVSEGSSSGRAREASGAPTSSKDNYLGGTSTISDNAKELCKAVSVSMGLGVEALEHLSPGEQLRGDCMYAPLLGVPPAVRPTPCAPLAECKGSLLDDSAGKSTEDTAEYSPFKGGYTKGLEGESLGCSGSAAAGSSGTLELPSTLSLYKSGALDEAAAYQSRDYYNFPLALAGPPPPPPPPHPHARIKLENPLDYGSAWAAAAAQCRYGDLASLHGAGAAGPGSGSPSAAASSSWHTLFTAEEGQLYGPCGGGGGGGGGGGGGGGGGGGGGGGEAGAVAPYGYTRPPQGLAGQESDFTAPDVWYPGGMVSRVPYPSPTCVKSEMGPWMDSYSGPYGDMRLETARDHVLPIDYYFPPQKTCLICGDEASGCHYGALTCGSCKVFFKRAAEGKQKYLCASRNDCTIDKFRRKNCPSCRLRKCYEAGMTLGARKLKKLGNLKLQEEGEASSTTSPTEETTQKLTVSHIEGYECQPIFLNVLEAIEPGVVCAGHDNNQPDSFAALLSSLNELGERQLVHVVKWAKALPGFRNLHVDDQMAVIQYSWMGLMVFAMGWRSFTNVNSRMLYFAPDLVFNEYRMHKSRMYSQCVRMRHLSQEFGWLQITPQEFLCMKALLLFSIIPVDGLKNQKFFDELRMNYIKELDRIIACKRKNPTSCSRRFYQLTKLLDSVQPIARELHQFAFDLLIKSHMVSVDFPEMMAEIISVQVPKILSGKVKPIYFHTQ
# experiment_description: mmTV-luciferase reporter assay, endogenous AR in LNCaP cells
# measurement_setup: 10 nM DHT, read-out: LVCaP data
reported_metric: IC50 (nM)

molecular_string	recorded_number
C[C@](O)(CS(=O)(=O)c1ccc(F)cc1)C(=O)Nc1cncc(C(F)(F)F)c1	110
C[C@](O)(CS(=O)(=O)c1ccc(F)cc1)C(=O)Nc1cccc(C(F)(F)F)c1	530

---

Recorded pIC50 for the following compounds
# tested_on: AR ligand-binding domain (AR LBD) (Homo sapiens (Human))
# Sequence (P10275 669-900): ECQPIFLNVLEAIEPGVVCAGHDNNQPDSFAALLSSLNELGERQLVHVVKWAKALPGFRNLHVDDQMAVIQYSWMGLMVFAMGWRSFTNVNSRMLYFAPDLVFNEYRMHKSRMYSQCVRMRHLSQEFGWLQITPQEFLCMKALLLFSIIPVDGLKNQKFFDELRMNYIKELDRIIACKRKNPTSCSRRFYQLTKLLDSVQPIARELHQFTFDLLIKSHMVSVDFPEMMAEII
# experiment_description: Gal4-luciferase reporter assay, Gal-AR LBD in HeLa cells
# Type: cell-based
pIC50: −log10 of the molar value.

compound	pIC50
C[C@](O)(CS(=O)(=O)c1ccc(F)cc1)C(=O)Nc1cc(C(F)(F)F)ccn1 [FC 4.125]	4.65
C[C@](O)(CS(=O)(=O)c1ccc(F)cc1)C(=O)Nc1cc(C(F)(F)F)c(C#N)cn1 [FC 3.077]	6.31
C[C@](O)(CS(=O)(=O)c1ccc(F)cc1)C(=O)Nc1ccc([N+](=O)[O-])c(C(F)(F)F)c1 [FC 4.127]	5.14

---

# tested_on: AR ligand-binding domain (AR LBD) (Homo sapiens (Human))
# experiment_description: Gal4-luciferase reporter assay, Gal-AR LBD in HeLa cells
# Assay type: cell-based
# measurement_setup: in relationship to the experimental casodex data
I'd appreciate it if you marked entries class 1 when Fold chg (LBD) is lower than 0.2 and class 0 when it is not.

molecular_string	class_assignment
C=CS(=O)(=O)C(c1ccc(NC(=O)[C@@](C)(O)CS(=O)(=O)c2ccc(F)cc2)cc1C(F)(F)F)S(=O)(=O)C=C	class 0
C=CC(=O)Nc1ccc(NC(=O)[C@@](C)(O)CS(=O)(=O)c2ccc(F)cc2)cc1C(F)(F)F	class 0
C[C@](O)(CS(=O)(=O)c1ccc(F)cc1)C(=O)Nc1cncc(C(F)(F)F)c1	class 0
C[C@](O)(CS(=O)(=O)c1ccc(F)cc1)C(=O)Nc1cccc(C(F)(F)F)c1	class 1
C[C@](O)(CS(=O)(=O)c1ccc(F)cc1)C(=O)Nc1cc(C(F)(F)F)ccn1	class 1

---

# tested_on: AR ligand-binding domain (AR LBD) (Homo sapiens (Human))
# experiment_description: Gal4-luciferase reporter assay, Gal-AR LBD in HeLa cells
# Type: cell-based
# measurement_setup: Gal-AR LBD, Gal4-luciferase reporter, HeLa cells, 1 nM DHT; read-out: LBD IC50
pIC50: −log10 of the molar value.

compound	tested_on	pIC50
C=CS(=O)(=O)C(c1ccc(NC(=O)[C@@](C)(O)CS(=O)(=O)c2ccc(F)cc2)cc1C(F)(F)F)S(=O)(=O)C=C [FC 4.025]	AR ligand-binding domain (AR LBD) (Homo sapiens (Human))	6.24
C[C@](O)(CS(=O)(=O)c1ccc(F)cc1)C(=O)Nc1cccc(C(F)(F)F)c1 [FC 4.116]	AR ligand-binding domain (AR LBD) (Homo sapiens (Human))	5.60
C[C@](O)(CS(=O)(=O)c1ccc(F)cc1)C(=O)Nc1cncc(C(F)(F)F)c1 [FC 4.126]	AR ligand-binding domain (AR LBD) (Homo sapiens (Human))	5.81
C=CC(=O)Nc1ccc(NC(=O)[C@@](C)(O)CS(=O)(=O)c2ccc(F)cc2)cc1C(F)(F)F [FC 4.039]	AR ligand-binding domain (AR LBD) (Homo sapiens (Human))	6.12

---

# tested_on: full length AR (Homo sapiens (Human))
# experiment_description: mmTV-luciferase reporter assay, full length AR in HeLa cells
# Format: cell-based

molecular_string	IC50 (µM)
C[C@](O)(CS(=O)(=O)c1ccc(F)cc1)C(=O)Nc1ccc([N+](=O)[O-])c(C(F)(F)F)c1	8.74

---

# tested_on: full length AR (Homo sapiens (Human), UniProt P10275)
# Sequence (P10275 other isoform, or with tags, fused parts or gaps): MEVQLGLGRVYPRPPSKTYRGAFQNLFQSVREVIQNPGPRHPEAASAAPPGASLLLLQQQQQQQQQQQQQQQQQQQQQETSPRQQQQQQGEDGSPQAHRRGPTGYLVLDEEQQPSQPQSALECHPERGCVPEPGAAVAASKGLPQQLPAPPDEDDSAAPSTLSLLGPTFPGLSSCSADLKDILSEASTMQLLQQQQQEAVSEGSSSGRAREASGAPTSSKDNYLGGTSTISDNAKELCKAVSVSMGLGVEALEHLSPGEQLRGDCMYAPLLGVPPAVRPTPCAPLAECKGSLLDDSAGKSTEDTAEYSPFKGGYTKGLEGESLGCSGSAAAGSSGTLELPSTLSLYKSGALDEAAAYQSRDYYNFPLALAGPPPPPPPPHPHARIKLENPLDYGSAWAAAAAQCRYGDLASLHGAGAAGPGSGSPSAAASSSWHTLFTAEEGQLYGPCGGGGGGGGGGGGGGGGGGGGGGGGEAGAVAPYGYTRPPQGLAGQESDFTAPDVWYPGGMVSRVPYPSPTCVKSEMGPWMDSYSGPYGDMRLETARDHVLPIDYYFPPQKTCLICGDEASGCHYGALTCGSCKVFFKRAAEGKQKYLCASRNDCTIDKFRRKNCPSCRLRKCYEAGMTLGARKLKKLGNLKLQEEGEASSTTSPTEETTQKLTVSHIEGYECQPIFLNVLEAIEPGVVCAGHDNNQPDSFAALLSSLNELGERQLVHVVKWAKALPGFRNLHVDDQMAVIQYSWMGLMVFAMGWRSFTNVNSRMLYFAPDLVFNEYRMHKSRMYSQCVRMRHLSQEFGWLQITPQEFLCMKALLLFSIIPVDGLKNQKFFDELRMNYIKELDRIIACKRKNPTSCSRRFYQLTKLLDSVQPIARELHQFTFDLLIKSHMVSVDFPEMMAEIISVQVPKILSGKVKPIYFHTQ
# experiment_description: mmTV-luciferase reporter assay, full length AR in HeLa cells
# Type: cell-based
# measurement_setup: full length AR, mmTV-luciferase reporter, HeLa cells, 1 nM DHT; read-out: FL IC50
pIC50: −log10 of the molar value.
reported_metric: pIC50

molecular_string	reported_metric	recorded_number
C=CS(=O)(=O)C(c1ccc(NC(=O)[C@@](C)(O)CS(=O)(=O)c2ccc(F)cc2)cc1C(F)(F)F)S(=O)(=O)C=C	pIC50	5.89
C[C@](O)(CS(=O)(=O)c1ccc(F)cc1)C(=O)Nc1cccc(C(F)(F)F)c1	pIC50	4.14
C[C@](O)(CS(=O)(=O)c1ccc(F)cc1)C(=O)Nc1cncc(C(F)(F)F)c1	pIC50	4.91

Where do the numbers come from? From patent US10053433B2.
